target: huNav1.7α + β1 (human); assay: cell-based or functional assay
Attribute Measured: Qpatch IC50 (nM)

I: F010301558 (VHH) VHH: EVQLVESGGGLVQAGGSLRLSCAASGRILRIGYMRWHRQGAGKQREFVARITGDSATGYADSVKGRFTISRDNAKNTVYLQMNNLNPEDTAVYYCEALVTASVRGGSIHSGTYWGRGTLVTVSS
II: F010301563 (VHH) VHH: EVQLVESGGGLVQAGGSLRLSCAASGRILRIGYMRWHRQGAGKQREFVARITDDSATGYADSVKGRFTISRDNAKNTVYLQMNNLNPEDTAVYYCEALVTASVRGGSIHSGTYWGRGTLVTVSS
Field: lower Qpatch IC50 | Options: I / II Pick one and reply with its label.
II
(II: 5 nM, I: 8 nM)
